Numbers sourced from patent US9675659B2.

- Assay Details: in vivo
- Measurement Setup: Sprague-Dawley, rat, lung, inhaled, 7.2 mg/kg
Reported Endpoint: concentration at 312 h (ng/g)
Output spec: scalar in ng/g, unitless text.

Look up concentration at 312 h for this molecule: CC[C@H](C)C[C@H](C)CCCCCCCCC(=O)N[C@H]1C[C@@H](O)[C@@H](NCCN)NC(=O)[C@@H]2[C@@H](O)CCN2C(=O)[C@H]([C@H](O)CCN)NC(=O)[C@H]([C@H](O)[C@@H](O)c2ccc(O)cc2)NC(=O)[C@@H]2C[C@@H](O)CN2C(=O)[C@H]([C@@H](C)O)NC1=O
150
